Just for reference, patent US20190352276A1 is where these values come from.

// endpoint pIC50 / system EGFR (Homo sapiens, UniProt P00533)
pIC50: −log10 of the molar value.

Recorded results for 4 molecules are shown here.
smiles	pIC50
C=CC(=O)N1CCC[C@@H](n2nc(-c3ccc(Oc4ccncc4)cc3)c3c(N)ncc(Cl)c32)C1	7.31
C=CC(=O)N1CCC[C@@H](n2nc(-c3ccc(C(=O)Nc4ncccc4F)cc3)c3c(N)ncc(C#N)c32)C1	7.73
C=CC(=O)N1CCC[C@@H](n2nc(-c3ccc(Oc4ccncc4C#N)cc3)c3cncc(Cl)c32)C1	< 6.30
C=CC(=O)N1CCC[C@@H](n2nc(-c3cnc(C(=O)Nc4cc(C(F)(F)CCC)ccn4)nc3)c3cncc(Cl)c32)C1	< 6.30

Can you look up pIC50 on EGFR (Homo sapiens, UniProt P00533) for C=CC(=O)N1CCC[C@@H](n2nc(-c3ccc(Oc4cccnc4C#N)cc3)c3cncc(F)c32)C1 ? < 6.30

Can you look up pIC50 on EGFR (Homo sapiens, UniProt P00533) for C=CC(=O)N1CCC[C@@H](n2nc(-c3ccc(C(=O)Nc4cc(C(F)(F)CCC)ccn4)cc3)c3cncc(Cl)c32)C1 ? < 6.30

Can you look up pIC50 on EGFR (Homo sapiens, UniProt P00533) for C=CC(=O)N1CCC[C@@H](n2nc(-c3ccc(Oc4ccncc4)cc3)c3cncc(Cl)c32)C1 ? < 6.00

Can you look up pIC50 on EGFR (Homo sapiens, UniProt P00533) for C=CC(=O)N1CCC[C@@H](n2nc(-c3ccc(C(=O)Nc4ccccn4)cc3)c3cncc(Cl)c32)C1 ? 6.76

====

experiment: Permeability through the monolayer of Caco-2 cells; type: in vitro ADME; conditions: human, A→B, 2 h at 37° C.
endpoint.label: Papp A→B at 2 h, 10 μM (×10⁻⁶ cm/s)
Your answer should be a plain number; it is taken to be in ×10⁻⁶ cm/s.

Recorded results for 3 compounds are shown here.
compound	readout.unit	Papp A→B at 2 h, 10 μM
C=CC(=O)N1CCC[C@@H](n2nc(-c3ccc(C(=O)Nc4cc(C(F)(F)F)ccn4)cc3)c3cncc(Cl)c32)C1 [BCD-BTK-210]	×10⁻⁶ cm/s	11.9
C=CC(=O)N1CCC[C@@H](n2nc(-c3ccc(Oc4cncc(C(N)=O)c4)cc3)c3cncc(Cl)c32)C1 [BCD-BTK-222]	×10⁻⁶ cm/s	5.06
C=CC(=O)N1CCC[C@@H](n2nc(-c3ccc(Oc4ccncc4)cc3)c3cncc(Cl)c32)C1 [BCD-BTK-125]	×10⁻⁶ cm/s	21

// moving on: another record for Papp A→B at 2 h, 10 μM
Suppose we examine the compound C=CC(=O)N1CC[C@@H](n2nc(-c3ccc(Oc4ccncc4)cc3)c3cncc(Cl)c32)C1 [BCD-BTK-272] ; what Papp A→B at 2 h, 10 μM value has been reported? 6.3

====

system: Caco-2 cells; assay: Permeability through the monolayer of Caco-2 cells; type: in vitro ADME
Simple rule here: efflux (Papp B-A/Papp A-B) less than 0.05 is t, otherwise f.

Confirm or reject: efflux (Papp B-A/Papp A-B) of C=CC(=O)N1CCC[C@@H](n2nc(-c3ccc(C(=O)Nc4cc(C(F)(F)F)ccn4)cc3)c3cncc(Cl)c32)C1 lies strictly below 0.05 t

Confirm or reject: efflux (Papp B-A/Papp A-B) of C=CC(=O)N1CCC[C@@H](n2nc(-c3cnc(C(=O)Nc4cc(C(F)(F)CC)ccn4)nc3)c3cncc(Cl)c32)C1 lies strictly below 0.05 f

Confirm or reject: efflux (Papp B-A/Papp A-B) of C=CC(=O)N1CCC[C@@H](n2nc(-c3cnc(C(=O)Nc4cc(C(F)(F)CCC)ccn4)nc3)c3cncc(Cl)c32)C1 lies strictly below 0.05 t

Confirm or reject: efflux (Papp B-A/Papp A-B) of C=CC(=O)N1CCC[C@@H](n2nc(-c3ccc(Oc4ccncc4C#N)cc3)c3cncc(Cl)c32)C1 lies strictly below 0.05 f

====

assay: Permeability through the monolayer of Caco-2 cells; format: in vitro ADME; details: human, B→A, 2 h at 37° C.
endpoint.label: Papp B→A at 2 h, 10 μM

compound	measured
C=CC(=O)N1CCC[C@@H](n2nc(-c3ccc(C(=O)Nc4cc(C(F)(F)CC)ccn4)cc3)c3cncc(F)c32)C1 [BCD-BTK-214]	0.87 ×10⁻⁶ cm/s
C=CC(=O)N1CCC[C@@H](n2nc(-c3ccc(Oc4cccnc4C#N)cc3)c3cncc(F)c32)C1 [BCD-BTK-230]	2.68 ×10⁻⁶ cm/s
C=CC(=O)N1CCC[C@@H](n2nc(-c3ccc(Oc4ccncc4C(N)=O)cc3)c3cncc(Cl)c32)C1 [BCD-BTK-203]	8.4 ×10⁻⁶ cm/s
C=CC(=O)N1CCC[C@@H](n2nc(-c3ccc(Oc4cccnc4C#N)cc3)c3c(N)ncc(Cl)c32)C1 [BCD-BTK-236]	2.87 ×10⁻⁶ cm/s
C=CC(=O)N1CCC[C@@H](n2nc(-c3ccc(C(=O)Nc4ccc(F)cn4)cc3)c3c(N)ncc(Cl)c32)C1 [BCD-BTK-237]	3.5 ×10⁻⁶ cm/s

Suppose we examine the compound C=CC(=O)N1CCC[C@@H](n2nc(-c3ccc(C(=O)Nc4ccccn4)cc3)c3c(N)ncc(Cl)c32)C1 [BCD-BTK-238] ; what Papp B→A at 2 h, 10 μM value has been reported? 4.78 ×10⁻⁶ cm/s

Suppose we examine the compound C=CC(=O)N1CCC[C@@H](n2nc(-c3ccc(Oc4cncc(C(N)=O)c4)cc3)c3cncc(Cl)c32)C1 [BCD-BTK-222] ; what Papp B→A at 2 h, 10 μM value has been reported? 6.97 ×10⁻⁶ cm/s

====

assay: Permeability through the monolayer of Caco-2 cells; format: in vitro ADME; settings: human, B→A, 2 h at 37° C.
endpoint.label: Papp B→A at 2 h, 10 μM (×10⁻⁶ cm/s)
Your answer should be a plain number; it is taken to be in ×10⁻⁶ cm/s.

compound	Papp B→A at 2 h, 10 μM, ×10⁻⁶ cm/s
C=CC(=O)N1CCC[C@@H](n2nc(-c3ccc(Oc4ccncc4)cc3)c3cncc(F)c32)C1 [BCD-BTK-211]	3.55
C=CC(=O)N1CCC[C@@H](n2nc(-c3cnc(C(=O)Nc4cc(C(F)(F)CCC)ccn4)nc3)c3cncc(Cl)c32)C1 [BCD-BTK-292]	0.07
C=CC(=O)N1CCC[C@@H](n2nc(-c3ccc(C(=O)Nc4cc(C(F)(F)F)ccn4)cc3)c3c(N)ncc(Cl)c32)C1 [BCD-BTK-251]	1.5
C=CC(=O)N1CCC[C@@H](n2nc(-c3ccc(Oc4cccnc4C#N)cc3)c3cncc(Cl)c32)C1 [BCD-BTK-218]	17.4
C=CC(=O)N1CCC[C@@H](n2nc(-c3cnc(C(=O)Nc4ccccn4)nc3)c3cncc(Cl)c32)C1 [BCD-BTK-229]	12.2
C=CC(=O)N1CCC[C@@H](n2nc(-c3ccc(C(=O)Nc4cc(C(F)(F)CC)ccn4)cc3)c3c(N)ncc(Cl)c32)C1 [BCD-BTK-231]	1.84

// moving on: another record for Papp B→A at 2 h, 10 μM
Suppose we examine the compound C=CC(=O)N1CCC[C@@H](n2nc(-c3ccc(Oc4ccncc4C#N)cc3)c3cncc(Cl)c32)C1 [BCD-BTK-202] ; what Papp B→A at 2 h, 10 μM value has been reported? 1.91

====

test: Chemical stability in artificial gastric fluid (SGF without enzymes); details: 10 μM in SGF without enzymes, pH=1.4, 37° C.
endpoint.label: Amount of substance in the sample in % (chemical stability) (%)
Your answer should be a plain number; it is taken to be in %.

Recorded results for 5 compounds are shown here.
smiles	measured
C=CC(=O)N1CCC[C@@H](n2nc(-c3ccc(-n4ccc(=O)cc4)cc3)c3cc(O)cc(C#N)c32)C1	97.5
CC#CC(=O)N1CC[C@@H](Cn2nc(-c3ccc(C(=O)Nc4ccccn4)cc3)c3cncc(Cl)c32)C1	100
C=CC(=O)N1CCC[C@@H](n2nc(-c3cnc(-n4ccc(=O)cc4)nc3)c3c(N)ncc(Cl)c32)C1	98.7
C=CC(=O)N1CCC[C@@H](n2nc(-c3ccc(C(=O)Nc4cc(C(F)(F)CCC)ccn4)cc3)c3c(N)ncc(Cl)c32)C1	100
C=CC(=O)N1CC[C@H](Cn2nc(-c3ccc(C(=O)Nc4ccccn4)cc3)c3cncc(Cl)c32)C1	100

Suppose we examine the compound C=CC(=O)N1CCC[C@@H](n2nc(-c3cnc(C(=O)Nc4cc(C(F)(F)CCC)ccn4)nc3)c3cncc(Cl)c32)C1 ; what Amount of substance in the sample in % (chemical stability) value has been reported? 100

Suppose we examine the compound C=CC(=O)N1CCC[C@@H](n2nc(-c3ccc(Oc4ccncc4)cc3)c3cncc(F)c32)C1 ; what Amount of substance in the sample in % (chemical stability) value has been reported? 100

Suppose we examine the compound C=CC(=O)N1CCC[C@@H](n2nc(-c3ccc(C(=O)Nc4ccc(F)cn4)cc3)c3cncc(Cl)c32)C1 ; what Amount of substance in the sample in % (chemical stability) value has been reported? 100
